# kcat values compiled below
B1: glmS ribozyme (parent)
chain: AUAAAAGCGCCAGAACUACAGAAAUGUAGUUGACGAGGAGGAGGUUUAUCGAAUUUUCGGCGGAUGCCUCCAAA

Variants of: B1
Measurement Protocol: kcat; higher = faster cleavage; RNA array
Stated Conditions: with glucosamine-6-phosphate
Fewer inactive variants are shown than the library holds.
Number in s⁻¹, nothing else.

Request: State, in one line, measured kcat of U45C U46G
Result: 0.00122

Request: State, in one line, measured kcat of G13A C70U
Result: 0.000795

Request: State, in one line, measured kcat of C10A C68A
Result: 1.98e-05

These data points were gathered from the supplement of paper PMC7125110.
